These entries and their values trace back to patent US20240208961A1.

test-details: Pharmacokinetic studies of certain compounds in female Balb/c mice (Example 5)
Assay type: in vivo
assay-setup: female, Balb/c, mouse, plasma, po, 30 mg/kg, I-27 PO 30 mg/kg, 0.5 hr, read-out: Plasma concentration Individual
attribute-measured: concentration at 0.5 h (ng/mL)
Could you give me the number in ng/mL? Just the number is fine.

Prompt line: What does the data say about its concentration at 0.5 h? Entry: CC(C)Cc1sc(Nc2ncc(-c3cccs3)cc2C(=O)O)nc1C1(C)CCCCC1
Response line: 2080

====

test-details: Pharmacokinetic studies of certain compounds in female Balb/c mice (Example 5)
Format: in vivo
assay-setup: female, Balb/c, mouse, plasma, po, 30 mg/kg, I-3 PO 30 mg/kg, 0.083 hr, read-out: Plasma concentration Mean
attribute-measured: concentration at 0.083 hr (ng/mL)
Could you give me the number in ng/mL? Just the number is fine.

Prompt line: What does the data say about its concentration at 0.083 hr? Entry: CC(C)Cc1sc(Nc2ncc(-c3cccs3)cc2C(=O)O)nc1C1CCCCC1
Response line: 57.2

====

test-details: Pharmacokinetic studies of certain compounds in female Balb/c mice (Example 5)
Type: in vivo
assay-setup: mouse, plasma, I-2 PO 100 mg/kg
attribute-measured: MRT inf (h)
Could you give me the number in h? Just the number is fine.

Prompt line: What does the data say about its MRT inf? Entry: CC(C)Cc1sc(Nc2ncc(-c3cccs3)cc2C(=O)O)nc1C1=CCCCC1
Response line: 4.73

====

test-details: Pharmacokinetic studies of certain compounds in female Balb/c mice (Example 5)
Type: in vivo
assay-setup: mouse, plasma, I-27 IV 1 mg/kg
attribute-measured: MRT last

Prompt line: What does the data say about its MRT last? Entry: CC(C)Cc1sc(Nc2ncc(-c3cccs3)cc2C(=O)O)nc1C1(C)CCCCC1
Response line: 1.04 h

====

test-details: Pharmacokinetic studies of certain compounds in female Balb/c mice (Example 5)
Format: in vivo
assay-setup: female, Balb/c, mouse, plasma, po, 100 mg/kg, I-2 PO 100 mg/kg, 1 hr, read-out: Plasma concentration Mean
attribute-measured: concentration at 1 h (ng/mL)
Could you give me the number in ng/mL? Just the number is fine.

Prompt line: What does the data say about its concentration at 1 h? Entry: CC(C)Cc1sc(Nc2ncc(-c3cccs3)cc2C(=O)O)nc1C1=CCCCC1
Response line: 3560

====

test-details: Pharmacokinetic studies of certain compounds in female Balb/c mice (Example 5)
Format: in vivo
assay-setup: female, Balb/c, mouse, plasma, iv, 1.48 mg/kg, I-29 IV 1.48 mg/kg, 0.5 hr, read-out: Plasma concentration Individual
attribute-measured: concentration at 0.5 h (ng/mL)
Could you give me the number in ng/mL? Just the number is fine.

Prompt line: What does the data say about its concentration at 0.5 h? Entry: CC(C)Cc1sc(Nc2ncc(-c3cccs3)cc2C(=O)O)nc1C1CCC(F)(F)CC1 [Compound I-29]
Response line: 95.5

====

test-details: Pharmacokinetic studies of certain compounds in female Balb/c mice (Example 5)
Format: in vivo
assay-setup: female, Balb/c, mouse, plasma, po, 50 mg/kg, I-8 PO 50 mg/kg, 4 hr, read-out: Plasma concentration Mean
attribute-measured: concentration at 4 h

Prompt line: What does the data say about its concentration at 4 h? Entry: CC(C)Cc1sc(Nc2ncc(-c3cccs3)cc2C(=O)O)nc1C1=CCCC1 [Compound I-8]
Response line: 675 ng/mL
